System: K-562 leukemia
assay info: NCI-60 one-dose screen, 48 h (100 = growth as untreated, 0 = no growth, -100 = all killed)
test parameters: 10 µM unless noted
This is part of a sample that, as a whole, favours compounds with a hit. Of some 83,000 tested, about 20% had one in any assay.
Just so you know, the groups by growth go like this: bin 0 = under 20%, bin 1 = from 20% up to 90%, bin 2 = 90% and over

>  <compound>
C[n+]1c2ccccc2c(NC2CCNCC2)c2[nH]c3ccccc3c21

>  <answer label>
bin 0

$$$$
>  <compound>
COc1ccc(COC(C)=O)cc1

>  <answer label>
bin 2

$$$$
>  <compound>
COc1cc(OC)c2sc(-c3ccc(-n4cncc4-c4ccc(N)cc4)cc3)nc2c1

>  <answer label>
bin 1

$$$$
>  <compound>
COc1cccc(C2C(C#N)=C(N)Oc3cc(OC)ccc32)c1 (centres undefined)

>  <answer label>
bin 0

$$$$
>  <compound>
COc1ccc(/C=N/NC(=O)c2ccc(S(C)(=O)=O)cc2)cc1OC

>  <answer label>
bin 1

$$$$
>  <compound>
COc1cc2c(c(OC)c1OC)CCc1cnoc1-2

>  <answer label>
bin 2

$$$$
>  <compound>
CC(C)(C)c1cc(O)c(O)c(C(C)(C)C)c1

>  <answer label>
bin 0

$$$$
>  <compound>
c1ccc(Nc2nnc(-c3cc(-c4cccnc4)n(-c4ccccc4)n3)s2)cc1

>  <answer label>
bin 1

$$$$
>  <compound>
C/C(=N/N=C(N)N)c1ccc(N)cc1

>  <answer label>
bin 2

$$$$
>  <compound>
Cc1ccc(C(C)C)cc1NC(=O)Nc1ccc([N+](=O)[O-])cc1

>  <answer label>
bin 0

$$$$
>  <compound>
Cc1ccccc1NC(=O)c1cc2ccccc2cc1O

>  <answer label>
bin 0

$$$$
>  <compound>
N#Cc1c(N)[nH]c(S)c1C#N

>  <answer label>
bin 2

$$$$
>  <compound>
Nc1c2ccccc2nc2ccccc12 (tested in a mixture with another compound)

>  <answer label>
bin 0

$$$$
>  <compound>
C=C(C)[C@@H]1C/C=C(/C=O)CC[C@@H]2O[C@@]2(C)CC/C=C(\C)CC1

>  <answer label>
bin 2

$$$$
>  <compound>
CCCCCCCCCCC[C@@H](C[C@H]1OC(=O)[C@H]1CCCCCC)OC(=O)[C@@H](CC(C)C)NC=O

>  <answer label>
bin 1

$$$$
>  <compound>
c1cnc2n[nH]c(Nc3ncnc4c3sc3ncccc34)c2c1

>  <answer label>
bin 1

$$$$
>  <compound>
O=C(CN1CCCCC1)Sc1nnc2sc3ccccc3n12

>  <answer label>
bin 2

$$$$
>  <compound>
OC(Cc1cccnc1)c1ccccc1 (centres undefined)

>  <answer label>
bin 2

$$$$
>  <compound>
O=C(c1ccccc1)c1ccco1

>  <answer label>
bin 2

$$$$
>  <compound>
Cn1cnc([N+](=O)[O-])c1S(=O)(=O)Oc1ccc(Cl)cc1

>  <answer label>
bin 0

$$$$
>  <compound>
N#Cc1cnc2cc(OC[C@H](O)CO)c(NC(=O)CC3CSSC3)cc2c1Nc1ccc(OCc2cccc(F)c2)c(Cl)c1

>  <answer label>
bin 0

$$$$
>  <compound>
O=C(Nc1nc2ccccc2s1)c1cc(-c2ccc(F)cc2)n2nc(-c3ccccc3)cc2n1

>  <answer label>
bin 1

$$$$
>  <compound>
COc1ccc(/C=C2\NC(=S)NC2=O)cc1

>  <answer label>
bin 2

$$$$
>  <compound>
CC1SC(c2c(Cl)cccc2Cl)N(NC(=O)c2[nH]c3ccc(F)cc3c2-c2ccccc2)C1=O (centres undefined)

>  <answer label>
bin 1

$$$$
>  <compound>
COc1cc2c(cc1OCCCCCn1c(-c3ccc(OCc4ccccc4)cc3)nc3cc(N4CCOCC4)ccc31)N=C[C@@H]1CCCN1C2=O

>  <answer label>
bin 1

$$$$
>  <compound>
COc1cc(/C=C/C(=O)c2c(-c3ccc(F)cc3)nc3sc(C)nn23)cc(OC)c1OC

>  <answer label>
bin 0

$$$$
>  <compound>
CCCCCCCC/C=C\CCCCCCCCOc1ccccc1CC(=O)NCC[N+]1(C)CCCC1

>  <answer label>
bin 1

$$$$
>  <compound>
COc1ccc(CCN2CCCN3C2=Nc2ccccc2S3(=O)=O)cc1

>  <answer label>
bin 0

$$$$
>  <compound>
C[C@]12CC[C@@H]3c4ccc(O)cc4CC[C@H]3[C@@H]1CC[C@@H]2NS(=O)(=O)c1cccc(Br)c1

>  <answer label>
bin 1

$$$$
>  <compound>
O=C(Nc1ccc(Cl)cc1)Nc1ccc(Oc2nncc3ccccc23)cc1

>  <answer label>
bin 0

$$$$
>  <compound>
O=C(/C=C/c1ccccc1)CC(c1ccccc1)N1CCOCC1 (centres undefined)

>  <answer label>
bin 1

$$$$
>  <compound>
Clc1ncn[nH]1

>  <answer label>
bin 2

$$$$

* * *

Recorded measurements of growth, one per entry
Tested on: PC-3 prostate
assay info: NCI-60 one-dose screen, 48 h (100 = growth as untreated, 0 = no growth, -100 = all killed)
test parameters: 10 µM unless noted
Compounds without any hit were thinned out: in the full panel of roughly 83,000, 20% have a hit.

>  <molecule>
Cc1cc2c(cc1C)Nc1sc(NC(=O)CN3CCN(C)CC3)nc1C(=O)N2

>  <growth, %>
101

$$$$
>  <molecule>
Cc1c(C(N)=O)sc2ncn(Cc3ccccc3)c(=O)c12

>  <growth, %>
113

$$$$
>  <molecule>
CNc1ccc(CSc2ccc(Cl)cc2)cc1

>  <growth, %>
72.9

$$$$
>  <molecule>
Fc1ccc(-c2nnc(-c3c(-c4ccc(F)cc4)nc4ncccn34)o2)cc1

>  <growth, %>
104

$$$$
>  <molecule>
Cc1cc(Cl)ccc1Nc1nc(C(F)(F)F)ccc1C(=O)NCC(=O)N/N=C/c1c(Cl)cccc1Cl

>  <growth, %>
-16.1

$$$$
>  <molecule>
O=C(Nc1ccncc1)C(=O)c1cn(S(=O)(=O)c2cccc(F)c2)c2ccccc12

>  <growth, %>
47

$$$$
>  <molecule>
NC(N)=N/N=C(/c1ccccc1)c1ccc(Cl)cc1

>  <growth, %>
72.8

$$$$
>  <molecule>
COc1ccc(-c2oc3cc(O)c(OC)c(O)c3c(=O)c2OC)cc1O

>  <growth, %>
15.5

$$$$
>  <molecule>
CC(NC(=O)C(C)Oc1ccc(Cl)cc1Cl)C(=O)O (stereo not given)

>  <growth, %>
102

$$$$
>  <molecule>
COC(=O)c1ccc2c(c1)nc(-c1ccc(O)c(OC)c1)n2-c1cc(C(C)(C)C)[nH]n1

>  <growth, %>
65.8

$$$$

* * *

Recorded measurements of growth, one per entry
Test system: OVCAR-5 ovarian
assay info: NCI-60 one-dose screen, 48 h (100 = growth as untreated, 0 = no growth, -100 = all killed)
test parameters: 10 µM unless noted
The panel holds about 83,000 compounds, 20% with a hit somewhere; the sample as a whole holds those more often.

>  <compound>
COc1cc2c(C#N)n3c(c2cc1OC)C(=O)C(c1ccccc1)Oc1ccccc1-3 (configuration not stated)

>  <growth / %>
69.2

$$$$
>  <compound>
CC(=O)c1nc2ccccc2n1CCn1cc(CC(N)C(=O)O)c2ccccc21 (configuration not stated)

>  <growth / %>
96.9

$$$$
>  <compound>
COc1cccc(-c2nnc(N)o2)c1

>  <growth / %>
105

$$$$
>  <compound>
S=C(c1ccccc1)N1CCN(c2cccc(Cl)c2)CC1

>  <growth / %>
97.2

$$$$
>  <compound>
O=C1/C(=C/c2ccc([N+](=O)[O-])s2)Oc2ccc(Br)cc21

>  <growth / %>
-66.8

$$$$
>  <compound>
O=C1N(C2CCCCC2)C(=O)N1C1CCCCC1

>  <growth / %>
28.9

$$$$
>  <compound>
Cc1nn(-c2ccc(Cl)cc2)c2nc3c(nc12)C(=O)c1ccccc1-3

>  <growth / %>
90.8

$$$$
>  <compound>
Cc1cc(C(=O)O)c(C)cc1C(=O)O

>  <growth / %>
96

$$$$
>  <compound>
CC1=C(C(=O)Nc2ccccc2)C(c2ccc3c(c2)OCCO3)NC(=O)N1 (configuration not stated)

>  <growth / %>
102

$$$$
>  <compound>
Cc1[nH]n(C(N)=S)c(=O)c1N=Nc1ccc(F)c(Cl)c1

>  <growth / %>
102

$$$$
>  <compound>
CCC(O)C(C)(C)C (configuration not stated)

>  <growth / %>
114

$$$$
>  <compound>
COC(=O)CCC1=C(C)/C(=C/c2[nH]c(-c3ccc[nH]3)cc2OC)N=C1C

>  <growth / %>
35

$$$$
>  <compound>
CCN1C(=O)c2ccc3c4c(ccc(c24)C1=O)C(=O)N(CCCNCc1ccccc1OC)C3=O

>  <growth / %>
-90.6

$$$$
>  <compound>
CC(=O)Oc1ccc(C2OC(c3ccc4ccccc4c3OC(C)=O)=NN2C(C)=O)c(OC(C)=O)c1 (configuration not stated)

>  <growth / %>
63.2

$$$$
>  <compound>
COc1ccc(Cn2c(NCCCN(C)C)nc(=O)n(Cc3ccc(F)cc3)c2=O)cc1

>  <growth / %>
109

$$$$
>  <compound>
C/C(=N/N=C(N)N)c1ccc(N)cc1

>  <growth / %>
105

$$$$
>  <compound>
Nc1c2ccccc2nc2ccccc12 (tested in a mixture with another compound)

>  <growth / %>
15.6

$$$$
>  <compound>
Cc1nnc(Nc2ccc(NC(=O)Nc3ccc(Cl)cc3)cc2)c2ccccc12

>  <growth / %>
72.8

$$$$
>  <compound>
C=CCOc1ccc2c(c1)CC[C@@H]1[C@@H]2CC[C@@]2(C)[C@H]1CC[C@]2(C)O

>  <growth / %>
75.3

$$$$
>  <compound>
O=C(/C(=C/c1ccc([N+](=O)[O-])cc1)c1ccccc1)c1ccccc1

>  <growth / %>
76.3

$$$$
>  <compound>
O=C1C2C3C=CC(O3)C2C(=O)N1Nc1ccccc1 (configuration not stated)

>  <growth / %>
97.4

$$$$
>  <compound>
COc1ccc(OC)c(NC(=O)c2cc3oc4ccccc4c3cc2O)c1

>  <growth / %>
103

$$$$

Values compiled from PubChem BioAssay (NCI).
